- system: Histone deacetylase 3 (Homo sapiens) (UniProt O15379)
- Sequence (O15379 whole entry, looked up): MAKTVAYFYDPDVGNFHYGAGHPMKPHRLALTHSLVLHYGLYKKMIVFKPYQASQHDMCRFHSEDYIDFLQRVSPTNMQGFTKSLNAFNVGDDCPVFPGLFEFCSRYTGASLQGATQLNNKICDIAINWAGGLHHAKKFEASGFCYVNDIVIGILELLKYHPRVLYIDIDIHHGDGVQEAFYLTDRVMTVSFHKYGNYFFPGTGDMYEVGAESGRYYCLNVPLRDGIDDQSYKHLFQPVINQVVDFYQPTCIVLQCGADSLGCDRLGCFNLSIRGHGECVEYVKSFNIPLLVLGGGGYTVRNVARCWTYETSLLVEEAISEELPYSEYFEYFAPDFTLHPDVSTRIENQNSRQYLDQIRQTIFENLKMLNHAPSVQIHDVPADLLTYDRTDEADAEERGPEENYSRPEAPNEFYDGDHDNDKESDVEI
- experiment-notes: HDAC3 deacetylase inhibitors, primary screen, biochemical, fluorescence, cell-free homogeneous (AID 2718)
- run-conditions: recombinant HDAC3, fluorogenic peptide/trypsin coupled, at 8.3 µM, hits give high values
In all, about 320,000 compounds went through this assay and about 480 (0.15%) were called active. Another 1% or so got no clear call; they are omitted. What follows is part of a selection rich in actives, with near analogues and random picks from the rest.
For each entry below, report its inhibition value.
Please state the figure in %; there is no need to write the unit.

Lab book: inhibition of CC(=O)Nc1ccc(S(=O)(=O)NCCC(=O)N2CCN(c3ccccc3Cl)CC2)cc1 noted as -4.42

Lab note: CC(C)Cn1c(SCC(=O)Nc2ccc(Cl)cc2F)nc(O)cc1=O gave inhibition of 8.68

The reported inhibition of the compound C[C@H]1CN([C@@H](C)CO)C(=O)Cc2cc(NS(C)(=O)=O)ccc2O[C@@H]1CN(C)CC1CC1 was -7.37

Entry CCCC1CCC(=NNC(=S)NCCc2ccccc2)CC1 (stereo not given) — recorded inhibition = -4.85

Input O=C1N[C@@H](c2ccccc2)COC(=O)[C@H](Cc2ccc(F)cc2)C/C=C\C[C@@H]1CC(=O)N(CCO)Cc1ccccc1 . Output inhibition: 8.45

# compound CC(C)(C)OC(=O)C[C@@H]1C/C=C\C[C@@H](CC(=O)N[C@H](CO)Cc2ccccc2)C(=O)NC[C@@H](c2ccccc2)OC1=O ; its inhibition = -3.9

// inhibition value for Cc1nnc(SCC(=O)Nc2ccc(S(=O)(=O)Nc3ccc(Cl)nn3)cc2)s1 : 0.425

Form: compound = CN1C(=O)[C@H]2[C@@H](/C=C/c3ccccc3)N3C(=O)CN(Cc4ccc(-c5ccccc5)cc4)C(=O)[C@@]3(C)[C@H]2C1=O ; inhibition = 6.83

Kindly note the recorded inhibition for O=C(OCC(=O)N1CCCCCC1)c1ccc(Cl)nc1 , which is 0.75

// inhibition value for S=c1[nH]c2ccccc2c2ccccc12 : 2.2

Just so you know, measured inhibition for COc1ccc(C(=O)NCc2ccccc2C)cc1S(=O)(=O)NC1CCCC1 came out at 2.42

Reported inhibition of COc1ccc(CCNC(=O)CN2C(=O)COc3ccc(S(=O)(=O)N4CCCC4)cc32)cc1OC : -4.05

Reported inhibition ( O=C1CCCC(O)=C1N=Nc1ccc2ncsc2c1 ) = -0.0778

Sure, the documented inhibition for COc1ccccc1C(=O)NCC(=O)OCC(=O)NNC(=O)c1ccc(Br)cc1 is -9.69

Briefly, inhibition measured for Cc1ccc(NC(=O)Cc2nc(COC(=O)C(C)NS(=O)(=O)c3ccc(C)cc3)cs2)cc1 (stereo not given) : 1.23

inhibition reading for CCC(CO)Oc1cc(NC(=O)c2cccc(F)c2)c2ncn(C(C)C)c2c1 (stereo not given) : -0.176

Documented inhibition of CN(C(=O)c1cccc(NC(=O)C2CCN(C(=O)OC(C)(C)C)CC2)c1)C1CCC1 : -2.89

# compound Cc1ccc(C)c(S(=O)(=O)N2CCN(c3ncnc4sccc34)CC2)c1 ; its inhibition = 8.6

inhibition reported for this compound CNS(=O)(=O)c1cccc(C(=O)OCC(=O)N2c3ccccc3NC(=O)C2(C)C)c1 : 4.33

For reference, reported inhibition for c1ccc2c(CCN3CCNC[C@H]3Cc3cccc4ccccc34)cccc2c1 stands at 4.64
